# Test system: SN12C renal
# test-method-notes: NCI-60 one-dose screen, 48 h
# conditions: 10 µM unless noted
The panel holds about 83,000 compounds, 20% with a hit somewhere; the sample as a whole holds those more often. Activity calls are given as the source filed them. The calls were made as follows: active = growth percent below 10; inactive = the rest.
Write down the outcome that applies. Available outcomes: label 1 (active), label 0 (inactive)

Would you mind telling me which call this test gave O=C(NNc1nc2cc(F)ccc2n2c(C(=O)N3CCN(C4CC4)CC3)ccc12)c1ncccn1 ?
label 0

Would you mind telling me which call this test gave O=C(N=Nc1c(O)[nH]c2ccc([N+](=O)[O-])cc12)c1ccc2nc(-c3ccccc3)[nH]c2c1 ?
label 0

Would you mind telling me which call this test gave C[C@H]1CN(C(=O)c2ccc3c(NNC(=O)c4ccncn4)nc4cc(F)c(F)cc4n23)CCN1 ?
label 0

Would you mind telling me which call this test gave O=c1oc2ccc(Br)cc2cc1C1=CSc2nc3sc4c(c3c(=O)n2N=C1)CCCC4 ?
label 0

Would you mind telling me which call this test gave Cn1cc(-c2nnc(N)nc2-c2c[nH]c3ccc(F)cc23)c2cccnc21 ?
label 0

Would you mind telling me which call this test gave C#CCOc1cc(N(CC)CC)ccc1C(C(=O)NC(C)(C)C)N(C(=O)C1CCc2cc(F)ccc2O1)c1ccc(Br)cc1 (centres undefined) ?
label 0

Would you mind telling me which call this test gave C=C1CC[C@@H]2[C@]3(C)COC(c4cn[nH]c4-c4ccc(F)cc4)O[C@@H]3CC[C@@]2(C)[C@@H]1C/C=C1/C(=O)OCC1O (some centres undefined) ?
label 1

Would you mind telling me which call this test gave CC(=O)Oc1ccccc1C(=O)[Se]C(=NC1CCCCC1)NC1CCCCC1 ?
label 1

Would you mind telling me which call this test gave COc1ccc(NC(=O)Cn2c3c(sc2=O)[C@H]2[C@@H](O)[C@@H](O)[C@H](O)[C@@H]2CS3)cc1 ?
label 0

Would you mind telling me which call this test gave COc1cc(-c2ccc(/C=N/NC(=O)c3[nH]c4ccc(Br)cc4c3-c3ccccc3)s2)cc(OC)c1OC ?
label 0

Would you mind telling me which call this test gave COc1ccc2nc(Nc3cccc(NC(=O)c4ccc(CN5CCCN(C)CC5)c(C(F)(F)F)c4)c3)ccc2c1 ?
label 1

Would you mind telling me which call this test gave O=C1C(=Nc2ccc(F)c(Cl)c2)c2cccc3cccc1c23 ?
label 0

Would you mind telling me which call this test gave CCOC(=O)c1ccc(Nc2nc(NN)nc(-c3ccc(OC)cc3)c2C#N)cc1 ?
label 0

Would you mind telling me which call this test gave O=C(Cn1c(/C=C/c2ccccc2)nc2ccccc2c1=O)Nc1ccc(Cl)cc1 ?
label 0

Would you mind telling me which call this test gave COc1cc(CNC(=O)/C=C/c2ccc3c(c2)OCO3)ccc1OCc1cn(-c2ccc([N+](=O)[O-])cc2)nn1 ?
label 0

Would you mind telling me which call this test gave O=C(NN1C(=O)/C(=C/C=C/c2ccc([N+](=O)[O-])o2)SC1=S)c1ccccc1O ?
label 1

Would you mind telling me which call this test gave NS(=O)(=O)c1ccc(N=Nc2c(O)n(CC(=O)Nc3ccccc3)c3ccccc23)cc1 ?
label 0

Would you mind telling me which call this test gave O=C(Nc1cccc(-n2cnc3cc(-c4ccc(O)cc4)ccc32)c1)C1CC1 ?
label 0

Would you mind telling me which call this test gave COc1ccc2c(c1)c(/C=N/Nc1ccc3ccccc3n1)cn2C ?
label 1

Would you mind telling me which call this test gave COc1cc(-c2nc3cc(Cl)c(Cl)cc3[nH]2)ccc1OCc1nnc(-c2cccs2)o1 ?
label 0

Would you mind telling me which call this test gave O=C(/C=C/c1cccc(OCc2ccccc2)c1)c1nc2ccccc2[nH]1 ?
label 0

Would you mind telling me which call this test gave O=C(/C=C/c1ccc(O)c(O)c1)NC1CCOC1O (centres undefined) ?
label 0

Would you mind telling me which call this test gave COc1cccc(/C=C/C(=O)c2ccc(OC)c(S(N)(=O)=O)c2)c1 ?
label 0

Would you mind telling me which call this test gave CCOC(=O)C(N=Nc1ccc(S(=O)(=O)N=C(N)N)cc1)C(C)=O (centres undefined) ?
label 0

Would you mind telling me which call this test gave COc1ccc(/C=C/c2n(Cc3ccc4ccccc4c3)c3ccccc3[n+]2Cc2ccc3ccccc3c2)cc1 ?
label 1

Would you mind telling me which call this test gave C=C1CCC2C3(C)COC(c4ccccc4)OC3CCC2(C)C1CC(Sc1ccccc1)C1=CCOC1=O (centres undefined) ?
label 0

Would you mind telling me which call this test gave COc1cc2nc(SCc3ccccc3)n(-c3ccc(Cl)cc3)c(=O)c2cc1OC ?
label 1

Would you mind telling me which call this test gave S=C(NCCc1ccccc1)Nc1ccc(OCc2nc3ccccc3[nH]2)cc1 ?
label 0

Would you mind telling me which call this test gave COc1cc2c(c(OC)c1OC)C(=O)CC(c1cccc(NC(=O)[C@@H](N)CC(C)C)c1)O2 (some centres undefined) ?
label 0
